Target: ET receptors in human primary PASMC (Homo sapiens)
Sequence (P25101 21-427): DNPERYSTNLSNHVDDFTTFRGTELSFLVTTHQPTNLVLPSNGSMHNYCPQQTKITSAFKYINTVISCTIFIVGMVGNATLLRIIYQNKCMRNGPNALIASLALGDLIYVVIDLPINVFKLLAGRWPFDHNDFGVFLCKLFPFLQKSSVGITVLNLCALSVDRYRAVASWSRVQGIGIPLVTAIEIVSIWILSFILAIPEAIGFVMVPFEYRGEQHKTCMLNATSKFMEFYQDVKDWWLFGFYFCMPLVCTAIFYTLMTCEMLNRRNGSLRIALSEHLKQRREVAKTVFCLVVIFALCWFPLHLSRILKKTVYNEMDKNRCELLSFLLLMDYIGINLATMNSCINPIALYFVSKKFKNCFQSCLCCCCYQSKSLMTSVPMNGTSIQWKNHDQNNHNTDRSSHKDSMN
Experiment: cell-based
Conditions: Kb 10 min, 10 min antagonist pre-incubation; ET-1 EC50–EC70; geometric mean n = 6
Square brackets hold non-standard residues; d marks the D form. Peptide text beside a SMILES is read from it.
Parameter Measured: Kb (nM)

CCCNS(=O)(=O)Nc1ncnc(OCCOc2ncc(Br)cn2)c1-c1ccc(Br)cc1 [macitentan] :: 0.86

I = COc1ccccc1Oc1c(NS(=O)(=O)c2ccc(C(C)C)cn2)nc(-c2ccnc(-c3nnn[nH]3)c2)nc1OCCO [tezosentan]
II = Cc1cc2c(cc1CC(=O)c1sccc1S(=O)(=O)Nc1onc(C)c1Cl)OCO2 [sitaxentan]
III = COC(c1ccccc1)(c1ccccc1)[C@H](Oc1nc(C)cc(C)n1)C(=O)O [ambrisentan]
IV = CC(C)C[C@@H]1NC(=O)[C@@H](C(C)C)NC(=O)[C@@H]2CCCN2C(=O)[C@@H](CC(=O)O)NC(=O)[C@@H](Cc2c[nH]c3ccccc23)NC1=O [BQ-123] (cyclo(L[dW][dD]P[dV]))
Please produce an ascending ranking of these molecules based on Kb. Rank the items, then write their labels in that order. I, III, IV, II

----------
Molecular target: ET receptors in human primary PASMC (Homo sapiens)
Assay: cell-based
Settings: Kb 120 min, 120 min antagonist pre-incubation (steady state); ET-1 EC50–EC70; geometric mean n = 6
Parameter Measured: Kb (pM)

P = COc1ccccc1Oc1c(NS(=O)(=O)c2ccc(C(C)C)cn2)nc(-c2ccnc(-c3nnn[nH]3)c2)nc1OCCO
Q = COC(c1ccccc1)(c1ccccc1)[C@H](Oc1nc(C)cc(C)n1)C(=O)O
R = Cc1cc2c(cc1CC(=O)c1sccc1S(=O)(=O)Nc1onc(C)c1Cl)OCO2
Sort the items above on Kb, descending. Rank the items, then write their labels in that order. R, Q, P

The values you see were collected from paper PMC3471877.
